Source: paper PMC4768221

Listed below: Kapp (apparent DNA binding constant) values for each entry.
- Tested on: double-stranded calf thymus DNA
- protocol_notes: Ethidium bromide displacement assay (affinity to DNA)
- Type: binding
- recorded_conditions: ethidium bromide displacement, mean of three ± S.D.

Known results for molecules:
- molecule: "COc1cccc2c1C(=O)c1c(O)c3c(c(O)c1C2=O)C[C@@](O)(C(=O)CO)C[C@@H]3O[C@H]1C[C@H](N=CN2CCOCC2)[C@H](O)[C@H](C)O1"
  measured_target: "double-stranded calf thymus DNA"
  Kapp (apparent DNA binding constant): "0.90 ± 0.12 × 10^5 [M^-1]"
- molecule: "COc1cccc2c1C(=O)c1c(O)c3c(c(O)c1C2=O)C[C@@](O)(C(=O)CO)C[C@@H]3O[C@H]1C[C@H](N)[C@H](O)[C@H](C)O1 [DOX, doxorubicin, reference compound]"
  measured_target: "double-stranded calf thymus DNA"
  Kapp (apparent DNA binding constant): "18.1 ± 0.41 × 10^5 [M^-1]"
- molecule: "COc1cccc2c1C(=O)c1c(O)c3c(c(O)c1C2=O)C[C@@](O)(C(C)=O)C[C@@H]3O[C@H]1C[C@H](N=CN2CCOCC2)[C@H](O)[C@H](C)O1"
  measured_target: "double-stranded calf thymus DNA"
  Kapp (apparent DNA binding constant): "0.64 ± 0.03 × 10^5 [M^-1]"

Recorded Kapp (apparent DNA binding constant) of COc1cccc2c1C(=O)c1c(O)c3c(c(O)c1C2=O)C[C@@](O)(C(C)=O)C[C@@H]3O[C@H]1C[C@H](N)[C@H](O)[C@H](C)O1 [DRB, daunorubicin, reference compound] , please. 11.7 ± 0.22 × 10^5 [M^-1]

Recorded Kapp (apparent DNA binding constant) of `COc1cccc2c1C(=O)c1c(O)c3c(c(O)c1C2=O)C[C@@](O)(C(=O)CO)C[C@@H]3O[C@H]1C[C@H](N=CN2CCCCCC2)[C@H](O)[C@H](C)O1` , please. 7.30 ± 0.14 × 10^5 [M^-1]

Recorded Kapp (apparent DNA binding constant) of `COc1cccc2c1C(=O)c1c(O)c3c(c(O)c1C2=O)C[C@@](O)(C(C)=O)C[C@@H]3O[C@H]1C[C@H](N=CN2CCCCCC2)[C@H](O)[C@H](C)O1` , please. 4.1 ± 0.08 × 10^5 [M^-1]
